- ASSAY_TARGET: T1, human CCR8 (human, UniProt P51685 1-355)
- T1 construct: the assay field says which; also called hCCR8; huCCR8
- ASSAY_COMMENT: flow cytometry, CHO-huCCR8.Gna15 cells, relative to rb.Ab5
- Method: Evaluation of CCR8 binding of the humanized variants with a hIgG1 Fc involved screening by flow cytometry, and comparing the relative EC₅₀ and MFI on human CCR8 CHO cells to the parental rabbit antibodies. […] Cells were washed twice with FACS buffer, and re-suspended in FACS buffer with propidium iodide (0.5 ug/ml) and analyzed with iQue3 (Sartorius).
Recorded Relative MFI for the following binders
Hi! Could you send only the number? It should be in ratio, unit omitted.

Observe how each entry below is paired with its result.
# BINDER, RECORDED_MEASUREMENT
data = [
    ("hu.Ab5.H8L1 (antibody, human IgG1, kappa, V domains shown) VH: EQQLLESGGGLVQPGGSLRLSCAVSGIDLSTYAMGWVRQAPGKGLEWIGLIHRSGRTYYATWAKGRFTISKDSSKNTVYLQMNSLRAEDTAVYFCTRSYPDYSATASIWGPGTTVTVSS VL: DIQVTQSPSSLSASVGDRVTITCQASENIANALAWYQQKPGKPPKFLIYGASNLASGVPSRFSGSGSGTDFTFTISSLQPEDIATYYCQQAYYGNSFVEGTFGGGTKVEIKR", 0.94),
    ("hu.Ab5.H12L1 (antibody, human IgG1, kappa, V domains shown) VH: EVQLLESGGGLVQPGGSLRLSCAASGIDLSTYAMGWVRQAPGKGLEWVSLIHRSGRTYYATWAKGRFTISRDNSKNTLYLQMNSLRAEDTAVYYCTRSYPDYSATASIWGQGTTVTVSS VL: DIQVTQSPSSLSASVGDRVTITCQASENIANALAWYQQKPGKPPKFLIYGASNLASGVPSRFSGSGSGTDFTFTISSLQPEDIATYYCQQAYYGNSFVEGTFGGGTKVEIKR", 0.26),
    ("hu.Ab5.H4L1 (antibody, human IgG1, kappa, V domains shown) VH: EQQLLESGGGLVQPGGSLRLSCAVSGIDLSTYAMGWVRQAPGKGLEWVGLIHRSGRTYYATWAKGRFTISKDSSKTTVYLQMNSLRAEDTAVYFCTRSYPDYSATASIWGPGTTVTVSS VL: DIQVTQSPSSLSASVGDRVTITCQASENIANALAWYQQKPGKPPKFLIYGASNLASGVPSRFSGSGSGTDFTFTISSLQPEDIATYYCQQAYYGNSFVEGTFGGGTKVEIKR", 0.95),
    ("hu.Ab5.H5L1 (antibody, human IgG1, kappa, V domains shown) VH: EQQLLESGGGLVQPGGSLRLSCAVSGIDLSTYAMGWVRQAPGKGLEWISLIHRSGRTYYATWAKGRFTISKDSSKTTVYLQMNSLRAEDTAVYFCTRSYPDYSATASIWGPGTTVTVSS VL: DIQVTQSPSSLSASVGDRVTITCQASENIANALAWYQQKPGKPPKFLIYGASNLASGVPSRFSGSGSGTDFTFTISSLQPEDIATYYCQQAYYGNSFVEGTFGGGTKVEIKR", 0.35),
]

Next:
// query What value of Relative MFI has been reported for the following binder? hu.Ab5.H6L1 (antibody, human IgG1, kappa, V domains shown) VH: EQQLLESGGGLVQPGGSLRLSCAVSGIDLSTYAMGWVRQAPGKGLEWIGLIHRSGRTYYATWAKGRFTISRDSSKTTVYLQMNSLRAEDTAVYFCTRSYPDYSATASIWGPGTTVTVSS VL: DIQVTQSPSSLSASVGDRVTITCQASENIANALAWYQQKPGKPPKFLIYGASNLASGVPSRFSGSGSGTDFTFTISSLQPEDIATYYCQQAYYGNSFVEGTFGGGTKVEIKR
// result 0.97
